Entry source: the supplement of paper PMC9112550

# System: Escherichia coli TOP10
# assay.comment: shrunken log2 fold change of peptide-encoding DNA abundance (4.5 h post-induction vs induction); higher = less antimicrobial activity (less host growth inhibition)
# reported.conditions: time post-induction: 4.5 h; library: site-saturation at positions 5, 18, 19, 20
Quick list: shrunken log2 fold change per entry.
Provide a numeric answer; units are not to be included.

Example entries and their recorded answers appear below.
Exercise: Write down the reported shrunken log2 fold change of RRIRARPPRLPRPRPRPSWEPRP , test system: Escherichia coli TOP10.
Solution: 0.162

Exercise: Form field: shrunken log2 fold change recorded for RRIRLRPPRLPRPRPRPVELPRP with Escherichia coli TOP10 (enter value)
Solution: 0.0718

Exercise: Missing value: shrunken log2 fold change, Escherichia coli TOP10, entry RRIRVRPPRLPRPRPRPFKQPRP . Fill in?
Solution: -0.0195

Exercise: Please tell me: shrunken log2 fold change of RRIRIRPPRLPRPRPRPMVVPRP , system Escherichia coli TOP10?
Solution: -0.0948

Exercise: So what shrunken log2 fold change did RRIRRRPPRLPRPRPRPEGWPRP get with Escherichia coli TOP10?
Solution: 3.17

Continuing:
Exercise: Form field - read-out: shrunken log2 fold change; system: Escherichia coli TOP10; submitted item: RRIRNRPPRLPRPRPRPRWMPRP;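 also: peptides expressed intracellularly from a pBAD plasmid library in pooled LB shake-flask culture, induced with 0.3% L-arabinose, DNA abundance read by NGS, three biological replicates, DESeq2 with apeglm shrinkage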
Solution: 0.0606

Exercise: What is its shrunken log2 fold change for Escherichia coli TOP10? Entry: RRIRLRPPRLPRPRPRPECSPRP
Solution: 0.177

Exercise: Short answer please: shrunken log2 fold change, Escherichia coli TOP10, entry RRIRVRPPRLPRPRPRPMNMPRP
Solution: -0.426

Exercise: Give shrunken log2 fold change (Escherichia coli TOP10) of the following sequence: RRIRSRPPRLPRPRPRPCFAPRP
Solution: 0.598
